Tested on: Plasmodium falciparum
Experiment: Relative in vitro activity compared to artemisinin against Plasmodium falciparum D6 (Sierra Leone)
Assay type: functional
Relative activity values for the molecules below.
Answer as a number with no unit attached.

Worked cases, answers included:
                                  structure  val
0  CCCC[C@@]12CC[C@H]3[C@H](C)CC[C@H]4CCO[C@H](O1)[C@]43OO2  653
1  C[C@@H]1CC[C@H]2CCO[C@@H]3O[C@@]4(CCCc5ccc(Cl)cc5)CC[C@@H]1[C@@]23OO4   13
2  C[C@@H]1CC[C@H]2CCO[C@@H]3O[C@@]4(CCc5ccccc5)CC[C@@H]1[C@@]23OO4    6
3  CCOC(=O)CC[C@@]12CC[C@H]3[C@H](C)CC[C@H]4CCO[C@H](O1)[C@]43OO2  422
4  CC(C)C[C@@]12CC[C@H]3[C@H](C)CC[C@H]4CCO[C@H](O1)[C@]43OO2  183

# molecule `C[C@@H]1CC[C@H]2[C@@H](C)CO[C@@H]3O[C@]4(C)CC[C@@H]1[C@]32OO4` ; its Relative activity = 659

Reported Relative activity of `C[C@@H]1CC[C@H]2[C@@H](CCCc3ccc(Cl)cc3)CO[C@@H]3O[C@@]4(C)CC[C@@H]1[C@]32OO4` : 6991

// field: Relative activity; key: `C[C@@H]1CC[C@H]2CCO[C@@H]3O[C@@]4(CCC(=O)O)CC[C@@H]1[C@@]23OO4` ; value = 0.09

The reported value for `CCC[C@@]12CC[C@H]3[C@H](C)CC[C@H]4CCO[C@H](O1)[C@]43OO2` in terms of Relative activity is 722

Lab note: `C[C@@H]1CC[C@H]2[C@@H](CCCc3ccccc3)CO[C@@H]3O[C@@]4(C)CC[C@@H]1[C@]32OO4` gave Relative activity of 5073

----------
Listed here are compounds together with their documented Relative activity.
System: Plasmodium falciparum
Experiment: Relative in vitro activity compared to artemisinin against Plasmodium falciparum D6 (Sierra Leone)
Assay type: functional
Format: numeric value only, no unit, no commentary.

Below are worked cases with known answers.
>>> print(df.to_string())
                                  structure      system_under_test  observed_property   val
0  CCCCC[C@H]1CO[C@@H]2O[C@@]3(C)CC[C@H]4[C@H](C)CC[C@@H]1[C@@]24OO3  Plasmodium falciparum  Relative activity   170
1  CC[C@@]12CC[C@H]3[C@H](C)CC[C@H]4CCO[C@H](O1)[C@]43OO2  Plasmodium falciparum  Relative activity    10
2  CCC[C@H]1CO[C@@H]2O[C@@]3(C)CC[C@H]4[C@H](C)CC[C@@H]1[C@@]24OO3  Plasmodium falciparum  Relative activity   473
3  CCCC[C@H]1CO[C@@H]2O[C@@]3(C)CC[C@H]4[C@H](C)CC[C@@H]1[C@@]24OO3  Plasmodium falciparum  Relative activity  5826
4  C[C@@H]1CC[C@H]2CCO[C@@H]3O[C@@]4(C)CC[C@@H]1[C@@]23OO4  Plasmodium falciparum  Relative activity   237
5  CC[C@H]1CO[C@@H]2O[C@@]3(C)CC[C@H]4[C@H](C)CC[C@@H]1[C@@]24OO3  Plasmodium falciparum  Relative activity   914

The reported Plasmodium falciparum Relative activity of `C[C@@H]1CC[C@H]2CCO[C@@H]3O[C@@]4(CCCCc5ccccc5)CC[C@@H]1[C@@]23OO4` is 336
